Tested on: HCV 1a replicon
Experiment: Cell-based HCV replicon assay (TaqMan), genotype 1a replicon
Details: Hepatitis C virus, 72 h, HCV genotype 1a replicon cells, replicon RNA by real time PCR, day 3; EC90 = concentration for ΔCT=3.2 over baseline
Metric: EC90 (nM)
Dear colleague, please return just the value in nM, with no unit written.

Quick one: EC90 for COC(=O)N[C@H](C(=O)N1C[Si](C)(C)C[C@H]1c1nc(Cl)c(-c2ccc(-c3ccc4c(ccc5nc([C@@H]6CCCN6C(=O)[C@@H](NC(=O)OC)C(C)C)[nH]c54)c3)cc2)[nH]1)C(C)C ? 0.24

Quick one: EC90 for CC[C@H](C)[C@H](NC(=O)OC)C(=O)N1CCC[C@H]1c1ncc(-c2ccc(-c3ccc4c(ccc5nc([C@@H]6C[Si](C)(C)CN6C(=O)[C@@H](NC(=O)OC)C(C)C)[nH]c54)c3)cc2)[nH]1 ? 0.3

Quick one: EC90 for COC(=O)N[C@H](C(=O)N1CCC[C@H]1c1ncc(-c2ccc(-c3ccc4c(ccc5nc([C@@H]6C[Si](C)(C)CN6C(=O)[C@@H](NC(=O)OC)C(C)C)[nH]c54)c3)cc2)[nH]1)C(C)C ? 0.012

Quick one: EC90 for COC(=O)N[C@@H](Cc1cn(C)cn1)C(=O)N1C[Si](C)(C)C[C@H]1c1nc2ccc3cc(-c4ccc(-c5cnc([C@@H]6CCCN6C(=O)[C@@H](NC(=O)OC)C(C)C)[nH]5)cc4)ccc3c2[nH]1 ? 0.36
